All values here come from patent US20130317009A1.

- Tested on: rat
- test.summary: animal or person
- Format: in vivo
- condition.notes: Rattus norvegicus, ip, 0.25 h, read-out: ED50 (95% CI) second pharmacologically active ingredient
Structures can show the parent of a compound that is named as a salt.
reported.metric: ED50
# output: number + unit

Example entries begin here.
NC(=O)N1c2ccccc2C=Cc2ccccc21 [carbamazepine]
30 mg/kg
CC[C@@H](C(N)=O)N1CCCC1=O
986 mg/kg
COC[C@@H](NC(C)=O)C(=O)NCc1ccccc1 [lacosamide]
35.3 mg/kg
Nc1nnc(-c2cccc(Cl)c2Cl)c(N)n1
30 mg/kg

We now examine a further compound.
Here CCOC(=O)Nc1ccc(NCc2ccc(F)cc2)cc1N [retigabine dihydrochloride] was tested on rat, and its ED50 came to 5.09 mg/kg
